Below, each entry is listed alongside its reported inhibition.
targetOrSystem: Serine/threonine-protein kinase MARK2 (Homo sapiens);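 further: mean percent inhibition of PAR-1Balpha kinase activity, reported from the GSK PKIS screen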
conditionDescription: at 0.1 µM
measureName: inhibition (%)

[
  {
    "molecularString": "COc1ccc(Nc2ncc(-c3ccccc3)o2)cc1OC",
    "readoutValue": 1.48
  },
  {
    "molecularString": "CNC(=O)c1cncc(/C=C/c2ccccc2C)c1",
    "readoutValue": 1.19
  },
  {
    "molecularString": "COc1ccc(-c2nn3ncccc3c2-c2ccnc(Nc3ccc(F)c(F)c3)n2)cc1",
    "readoutValue": 0.52
  },
  {
    "molecularString": "Cc1cc(O)cc(C)c1/C=C/c1cncc(C(=O)OC(C)(C)C)c1",
    "readoutValue": 0.13
  },
  {
    "molecularString": "CCOc1ccc2c(-c3ccnc(Nc4cc(OC)cc(C(F)(F)F)c4)n3)cnn2n1",
    "readoutValue": 0.85
  },
  {
    "molecularString": "O=C(O[C@H]1CN[C@H](C#Cc2cc3ncnc(Nc4ccc5c(cnn5Cc5ccccc5)c4)c3s2)C1)N1CCOCC1",
    "readoutValue": -1.65
  },
  {
    "molecularString": "c1cnn2ncc(-c3ccnc(NCCCN4CCOCC4)n3)c2c1",
    "readoutValue": -1.43
  },
  {
    "molecularString": "COc1cc(N2CCN(C(C)C)CC2)ccc1Nc1nc(Nc2cccc3ncccc23)c2cc[nH]c2n1",
    "readoutValue": -0.66
  },
  {
    "molecularString": "COc1c(C(N)=O)cc(-c2ccc(Cl)cc2)cc1-c1ccc(S(N)(=O)=O)cc1",
    "readoutValue": 1.8
  },
  {
    "molecularString": "Cc1nnc(-c2cccc(-c3ccc(C(=O)NCC4CC4)cc3)c2)o1",
    "readoutValue": 0.64
  },
  {
    "molecularString": "COc1ccc2ncn(-c3cc(O[C@H](C)c4ccccc4C(F)(F)F)c(C(N)=O)s3)c2c1",
    "readoutValue": 0.4
  },
  {
    "molecularString": "FC(F)(F)CNc1nccc(-c2cnn3ncccc23)n1",
    "readoutValue": 0.47
  },
  {
    "molecularString": "CS(=O)(=O)CCNCc1ccc(-c2ccc3ncnc(Nc4ccc(OCc5ccccc5)cc4)c3c2)o1",
    "readoutValue": -0.24
  },
  {
    "molecularString": "O=C(O[C@H]1CN[C@H](C#Cc2cc3ncnc(Nc4ccc5c(ccn5Cc5cc(F)ccc5F)c4)c3s2)C1)N1CCOCC1",
    "readoutValue": 0.88
  },
  {
    "molecularString": "CS(=O)(=O)CCNCc1ccc(-c2ccc3ncnc(Nc4ccc(OCc5cccc(C(F)(F)F)c5)cc4)c3c2)o1",
    "readoutValue": 0.72
  },
  {
    "molecularString": "Cc1cc(O)cc(C)c1/C=C/c1cncc(C(N)=O)c1",
    "readoutValue": 0.97
  },
  {
    "molecularString": "Cn1c(-c2nonc2N)nc2cnccc21",
    "readoutValue": 0.44
  },
  {
    "molecularString": "Cc1c2ccc(N(C)c3ccnc(Nc4cccc(S(N)(=O)=O)c4)n3)cc2nn1C",
    "readoutValue": 1.14
  },
  {
    "molecularString": "CC1(C)CC(n2cnc(-c3ccc(F)cc3)c2-c2ccnc(N)n2)CC(C)(C)N1",
    "readoutValue": 0.16
  },
  {
    "molecularString": "CN(C)CCNC(=O)Nc1ccc(N(C)c2ccnc(Nc3ccc(CS(C)(=O)=O)cc3)n2)cc1",
    "readoutValue": 2.5
  },
  {
    "molecularString": "CC(C)c1ccc(-c2cc(-c3c[nH]nc3-c3ccccn3)ccn2)cc1",
    "readoutValue": -2.82
  }
]

###

Below, each entry is listed alongside its reported inhibition.
targetOrSystem: PAS domain-containing serine/threonine-protein kinase (Homo sapiens) (UniProt Q96RG2)
Sequence (Q96RG2 whole entry, the tested form may be a part): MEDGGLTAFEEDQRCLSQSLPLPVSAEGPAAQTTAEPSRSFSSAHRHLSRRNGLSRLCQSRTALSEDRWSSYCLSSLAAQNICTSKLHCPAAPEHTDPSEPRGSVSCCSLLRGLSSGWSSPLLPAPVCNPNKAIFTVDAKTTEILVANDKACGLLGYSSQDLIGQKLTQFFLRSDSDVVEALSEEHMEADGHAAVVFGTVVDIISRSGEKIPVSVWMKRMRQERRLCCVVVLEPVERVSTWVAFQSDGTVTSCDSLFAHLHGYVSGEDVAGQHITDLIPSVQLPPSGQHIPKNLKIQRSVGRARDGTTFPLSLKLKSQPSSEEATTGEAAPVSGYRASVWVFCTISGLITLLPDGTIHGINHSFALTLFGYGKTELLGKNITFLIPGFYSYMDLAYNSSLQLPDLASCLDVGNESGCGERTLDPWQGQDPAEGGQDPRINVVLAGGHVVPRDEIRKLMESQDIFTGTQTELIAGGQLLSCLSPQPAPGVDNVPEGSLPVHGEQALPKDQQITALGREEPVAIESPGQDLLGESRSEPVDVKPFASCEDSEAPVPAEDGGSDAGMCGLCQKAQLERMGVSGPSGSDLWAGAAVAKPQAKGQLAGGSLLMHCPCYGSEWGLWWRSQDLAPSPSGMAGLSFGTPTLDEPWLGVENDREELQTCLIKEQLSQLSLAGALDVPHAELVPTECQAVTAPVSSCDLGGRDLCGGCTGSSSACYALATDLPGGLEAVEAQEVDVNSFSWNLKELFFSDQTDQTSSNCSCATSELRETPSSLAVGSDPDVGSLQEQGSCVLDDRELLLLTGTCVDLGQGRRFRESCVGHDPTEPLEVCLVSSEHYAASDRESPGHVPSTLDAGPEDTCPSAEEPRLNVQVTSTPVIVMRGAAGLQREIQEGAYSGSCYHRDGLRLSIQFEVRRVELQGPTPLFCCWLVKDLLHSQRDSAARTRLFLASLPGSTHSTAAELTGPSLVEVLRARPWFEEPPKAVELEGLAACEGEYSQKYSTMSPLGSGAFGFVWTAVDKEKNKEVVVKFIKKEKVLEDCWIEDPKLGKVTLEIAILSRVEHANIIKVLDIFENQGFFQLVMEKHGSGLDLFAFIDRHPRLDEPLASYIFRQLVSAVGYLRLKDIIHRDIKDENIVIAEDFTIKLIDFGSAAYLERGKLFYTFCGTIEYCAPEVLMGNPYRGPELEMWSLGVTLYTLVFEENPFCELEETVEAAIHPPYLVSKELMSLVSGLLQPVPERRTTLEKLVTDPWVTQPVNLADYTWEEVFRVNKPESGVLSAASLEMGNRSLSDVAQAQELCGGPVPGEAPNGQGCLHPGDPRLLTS
conditionDescription: at 0.1 µM
Description: GSK_PKIS: PASK mean inhibition at 0.1 uM [Nanosyn]

[
  {
    "molecularString": "Cc1cc(O)cc(C)c1/C=C/c1cncc(C(=O)OC(C)(C)C)c1",
    "targetOrSystem": "PAS domain-containing serine/threonine-protein kinase (Homo sapiens) (UniProt Q96RG2)",
    "inhibition (%)": -0.08
  },
  {
    "molecularString": "CCS(=O)(=O)c1ccc(OC)c(Nc2ncc(-c3cccc(C(C)=O)c3)o2)c1",
    "targetOrSystem": "PAS domain-containing serine/threonine-protein kinase (Homo sapiens) (UniProt Q96RG2)",
    "inhibition (%)": 0.37
  },
  {
    "molecularString": "COC(=O)Nc1nc2ccc(Oc3ccc(NC(=O)Nc4cc(C(F)(F)F)ccc4F)cc3)cc2s1",
    "targetOrSystem": "PAS domain-containing serine/threonine-protein kinase (Homo sapiens) (UniProt Q96RG2)",
    "inhibition (%)": -0.29
  },
  {
    "molecularString": "COc1cccc(-n2ncc3c(N/N=C/c4ccc(C(=O)NCCN(C)C)cc4)ncnc32)c1",
    "targetOrSystem": "PAS domain-containing serine/threonine-protein kinase (Homo sapiens) (UniProt Q96RG2)",
    "inhibition (%)": 0.59
  },
  {
    "molecularString": "NC(=O)c1ccc2c(-c3ccnc(NCCCO)n3)c(-c3ccc(F)cc3)nn2c1",
    "targetOrSystem": "PAS domain-containing serine/threonine-protein kinase (Homo sapiens) (UniProt Q96RG2)",
    "inhibition (%)": 0.06
  },
  {
    "molecularString": "c1cnn2ncc(-c3ccnc(NCCCN4CCOCC4)n3)c2c1",
    "targetOrSystem": "PAS domain-containing serine/threonine-protein kinase (Homo sapiens) (UniProt Q96RG2)",
    "inhibition (%)": -1.6
  },
  {
    "molecularString": "OCCCNc1nccc(-c2c(-c3ccc(F)cc3)nn3cc(C(F)(F)F)ccc23)n1",
    "targetOrSystem": "PAS domain-containing serine/threonine-protein kinase (Homo sapiens) (UniProt Q96RG2)",
    "inhibition (%)": -0.08
  },
  {
    "molecularString": "COc1ccc(-c2nn3ncccc3c2-c2ccnc(Nc3ccc(F)c(F)c3)n2)cc1",
    "targetOrSystem": "PAS domain-containing serine/threonine-protein kinase (Homo sapiens) (UniProt Q96RG2)",
    "inhibition (%)": 1.16
  },
  {
    "molecularString": "CCn1c(-c2nonc2N)nc2cncc(C(=O)NCCNC)c21",
    "targetOrSystem": "PAS domain-containing serine/threonine-protein kinase (Homo sapiens) (UniProt Q96RG2)",
    "inhibition (%)": 0.06
  },
  {
    "molecularString": "Fc1ccc(Nc2nccc(-c3c(-c4ccc(C(F)(F)F)cc4)nn4ncccc34)n2)cc1F",
    "targetOrSystem": "PAS domain-containing serine/threonine-protein kinase (Homo sapiens) (UniProt Q96RG2)",
    "inhibition (%)": 0.46
  }
]

###

targetOrSystem: Dual specificity tyrosine-phosphorylation-regulated kinase 2 (Homo sapiens) (UniProt Q92630);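 further: values are mean percent inhibition of DYRK2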
Sequence (Q92630 whole entry): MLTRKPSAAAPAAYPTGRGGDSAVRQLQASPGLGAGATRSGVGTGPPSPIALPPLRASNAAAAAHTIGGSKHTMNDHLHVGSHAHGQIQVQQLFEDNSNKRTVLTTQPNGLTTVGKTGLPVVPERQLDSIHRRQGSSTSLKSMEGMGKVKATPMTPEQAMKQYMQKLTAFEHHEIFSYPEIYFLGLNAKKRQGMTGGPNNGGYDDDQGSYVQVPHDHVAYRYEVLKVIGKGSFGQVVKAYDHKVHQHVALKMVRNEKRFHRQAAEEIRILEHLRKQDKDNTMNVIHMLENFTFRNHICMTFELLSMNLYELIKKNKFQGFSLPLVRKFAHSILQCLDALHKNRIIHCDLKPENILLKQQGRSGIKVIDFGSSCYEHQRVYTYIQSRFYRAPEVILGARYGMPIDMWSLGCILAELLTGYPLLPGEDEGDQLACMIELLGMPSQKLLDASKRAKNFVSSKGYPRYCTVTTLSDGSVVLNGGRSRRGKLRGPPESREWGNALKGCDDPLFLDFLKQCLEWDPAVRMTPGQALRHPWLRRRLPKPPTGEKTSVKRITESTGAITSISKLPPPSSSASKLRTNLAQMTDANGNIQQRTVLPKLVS
conditionDescription: at 0.1 µM
Below, each entry is listed alongside its reported inhibition.

[
  {
    "molecularString": "COc1cc(N2CCN(C(C)C)CC2)ccc1Nc1nc(Nc2cccc(F)c2C(=O)O)c2cc[nH]c2n1",
    "measurementUnits": "%",
    "inhibition": 2.88
  },
  {
    "molecularString": "COC(=O)Nc1nc2ccc(Oc3ccc(NC(=O)Nc4cc(C(F)(F)F)ccc4F)cc3)cc2s1",
    "measurementUnits": "%",
    "inhibition": -0.29
  },
  {
    "molecularString": "COc1c(C(N)=O)cc(-c2ccc(Cl)cc2)cc1-c1ccc(S(N)(=O)=O)cc1",
    "measurementUnits": "%",
    "inhibition": 3.75
  },
  {
    "molecularString": "FC(F)(F)CNc1nccc(-c2cnn3ncccc23)n1",
    "measurementUnits": "%",
    "inhibition": 2.04
  },
  {
    "molecularString": "Cc1ccc(-c2cc3c(NC(=O)C4CC4)ncnc3o2)cc1",
    "measurementUnits": "%",
    "inhibition": 2.48
  },
  {
    "molecularString": "COc1ccc(-c2nn3ncccc3c2-c2ccnc(Nc3ccc(F)c(F)c3)n2)cc1",
    "measurementUnits": "%",
    "inhibition": 2.83
  },
  {
    "molecularString": "CC1(C)CC(n2cnc(-c3ccc(F)cc3)c2-c2ccnc(N)n2)CC(C)(C)N1",
    "measurementUnits": "%",
    "inhibition": 0.23
  },
  {
    "molecularString": "Cc1cc(O)cc(C)c1/C=C/c1cncc(C(=O)OC(C)(C)C)c1",
    "measurementUnits": "%",
    "inhibition": 1.52
  },
  {
    "molecularString": "O=C1Nc2ccccc2/C1=C1\\CCc2cc(O)ccc21",
    "measurementUnits": "%",
    "inhibition": 5.9
  },
  {
    "molecularString": "CN(C)CCNC(=O)Nc1ccc(N(C)c2ccnc(Nc3ccc(CS(C)(=O)=O)cc3)n2)cc1",
    "measurementUnits": "%",
    "inhibition": 2.66
  },
  {
    "molecularString": "COc1ccc2ncn(-c3cc(O[C@H](C)c4ccccc4C(F)(F)F)c(C(N)=O)s3)c2c1",
    "measurementUnits": "%",
    "inhibition": -0.29
  },
  {
    "molecularString": "Cc1c2ccc(N(C)c3ccnc(Nc4cccc(S(N)(=O)=O)c4)n3)cc2nn1C",
    "measurementUnits": "%",
    "inhibition": 2.38
  },
  {
    "molecularString": "Cn1c(-c2nonc2N)nc2cnccc21",
    "measurementUnits": "%",
    "inhibition": 2.37
  },
  {
    "molecularString": "CS(=O)(=O)Nc1ccc(-c2cc(-c3ccccc3)cc(C(N)=O)c2N)cc1",
    "measurementUnits": "%",
    "inhibition": 0.61
  }
]
